This collection of values is drawn from patent EP1268431B1.

Recorded below: pIC50, system c-Src (Homo sapiens, UniProt P12931).
pIC50: −log10 of the molar value.
measured-property: pIC50

compound	pIC50
COc1cc(Nc2c(C#N)cnc3cc(-c4ccc(C=O)n4C)ccc23)c(Cl)cc1Cl [Example 69]	6.96
COc1cc(Nc2c(C#N)cnc3cc(C#CCN4CCOCC4)c(OC)cc23)c(Cl)cc1Cl [Example 166]	8.26
COc1cc(Nc2c(C#N)cnc3cc(-c4csc(CN5CCC(O)CC5)c4)ccc23)c(Cl)cc1Cl [Example 192]	8.68
COc1cc(Nc2c(C#N)cnc3cc(/C=C/C(=O)OC(C)(C)C)ccc23)c(Cl)cc1Cl [Example 142]	7.51

A: COc1cc(Nc2c(C#N)cnc3cc(-c4ccc(CNCCc5ccccn5)o4)ccc23)c(Cl)cc1Cl [Example 74]
B: COc1cc(Nc2c(C#N)cnc3cc(-c4ccc(CN5CCCCC5C(=O)O)cc4)ccc23)c(Cl)cc1Cl (centres unmarked) [Example 147]
C: CCN1CCN(CCc2ccc(-c3ccc4c(Nc5cc(OC)c(Cl)cc5Cl)c(C#N)cnc4c3)cc2)CC1 [Example 32]
D: N#Cc1cnc2cc(-c3ccc(-c4ccccn4)s3)ccc2c1Nc1ccc(Cl)cc1Cl [Example 18]
Please rank these compounds by pIC50 in descending order. Could you list the labels in the order requested?
B, C, A, D
(B: 9.33, C: 8.57, A: 7.40, D: 6.74)

###

# assayed-system: Raf-1 (c-Raf) (Homo sapiens)
# Construct: Sf9 insect cell lysate containing full length 6his-tagged recombinant human c-Raf; 6his; E. coli (GST-MEK1, GST-MAPK)
# Sequence (P04049 whole entry): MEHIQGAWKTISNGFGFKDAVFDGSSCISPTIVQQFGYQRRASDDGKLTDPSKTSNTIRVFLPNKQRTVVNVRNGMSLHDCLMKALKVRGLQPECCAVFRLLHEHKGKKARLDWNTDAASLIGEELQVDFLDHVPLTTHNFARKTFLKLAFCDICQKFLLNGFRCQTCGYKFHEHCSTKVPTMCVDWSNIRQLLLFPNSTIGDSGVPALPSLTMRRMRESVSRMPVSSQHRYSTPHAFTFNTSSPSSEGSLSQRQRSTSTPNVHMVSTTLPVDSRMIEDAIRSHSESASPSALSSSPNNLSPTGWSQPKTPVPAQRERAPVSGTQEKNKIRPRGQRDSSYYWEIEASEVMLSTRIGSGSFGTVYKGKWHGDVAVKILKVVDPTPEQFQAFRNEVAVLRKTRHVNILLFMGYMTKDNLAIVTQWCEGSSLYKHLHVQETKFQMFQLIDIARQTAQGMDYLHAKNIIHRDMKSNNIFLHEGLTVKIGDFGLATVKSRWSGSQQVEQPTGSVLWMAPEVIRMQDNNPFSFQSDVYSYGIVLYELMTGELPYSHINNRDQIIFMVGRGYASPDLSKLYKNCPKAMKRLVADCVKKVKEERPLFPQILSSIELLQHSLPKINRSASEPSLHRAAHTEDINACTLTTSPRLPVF
# assay-name: Raf1 Kinase Cascade Assay
measured-property: IC50 (nM)

Past entries and their recorded results:
given-smiles	measured-property	observed
Cn1ccnc1Sc1ccc(Nc2c(C#N)cnc3cc(-c4cnc(N5CCOCC5)nc4)ccc23)cc1Cl	IC50	1
N#Cc1cnc2cc(-c3csc(CN4CCCCC4)c3)ccc2c1Nc1ccc(Sc2ccccc2)c(Cl)c1	IC50	50
Cn1ccnc1Sc1ccc(Nc2c(C#N)cnc3cc(-c4ccc(CN5CCOCC5)cc4)ccc23)cc1Cl	IC50	5.6
Cn1ccnc1Sc1ccc(Nc2c(C#N)cnc3cc(-c4ccc(CN5CCCCC5)o4)ccc23)cc1Cl	IC50	20

P: Cn1ccnc1Sc1ccc(Nc2c(C#N)cnc3cc(-c4ccc(CN5CCNCC5)cc4)ccc23)cc1Cl
Q: Cn1ccnc1Sc1ccc(Nc2c(C#N)cnc3cc(-c4csc(CN5CCOCC5)c4)ccc23)cc1Cl
Parameter metric = IC50. Return the lower-valued option from P and Q . Provide the label of your selected option as the answer.
Q
(Q: 6 nM, P: 16 nM)

###

# assayed-system: c-Src (Homo sapiens, UniProt P12931)
# Sequence (P12931 whole entry, species assumed): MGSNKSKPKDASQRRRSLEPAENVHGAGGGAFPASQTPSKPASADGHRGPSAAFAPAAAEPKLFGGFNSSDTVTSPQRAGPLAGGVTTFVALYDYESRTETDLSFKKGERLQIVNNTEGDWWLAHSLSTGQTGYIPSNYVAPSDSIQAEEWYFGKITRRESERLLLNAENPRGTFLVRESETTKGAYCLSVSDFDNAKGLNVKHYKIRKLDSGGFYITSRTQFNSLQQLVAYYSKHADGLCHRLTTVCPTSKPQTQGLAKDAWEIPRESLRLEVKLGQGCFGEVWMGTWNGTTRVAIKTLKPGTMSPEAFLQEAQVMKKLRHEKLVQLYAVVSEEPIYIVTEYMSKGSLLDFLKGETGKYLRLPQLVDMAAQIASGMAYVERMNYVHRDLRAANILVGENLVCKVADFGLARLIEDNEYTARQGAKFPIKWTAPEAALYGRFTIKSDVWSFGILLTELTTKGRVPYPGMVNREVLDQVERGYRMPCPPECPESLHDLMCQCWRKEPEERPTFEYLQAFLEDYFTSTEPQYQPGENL
measured-property: IC50 (nM)

Worked examples follow.
compound	assayed-system	IC50 / nM
COc1cc(Nc2c(C#N)cnc3cc(-c4ccsc4CN4CCOCC4)ccc23)c(Cl)cc1Cl	c-Src (Homo sapiens, UniProt P12931)	380
COc1cc(Nc2c(C#N)cnc3ccc(-c4csc(CN5CCOCC5)c4)cc23)c(Cl)cc1Cl	c-Src (Homo sapiens, UniProt P12931)	111
N#Cc1cnc2cc(C=CCCCCN3CCOCC3)ccc2c1Nc1ccc(Cl)cc1Cl (mixture of isomers)	c-Src (Homo sapiens, UniProt P12931)	44
COc1cc(Nc2c(C#N)cnc3cc(-c4ccc(CN5CCOCC5)cc4)ccc23)c(Cl)cc1C	c-Src (Homo sapiens, UniProt P12931)	7.2
COc1cc(Nc2c(C#N)cnc3cc(-c4ccc(CCl)cc4)ccc23)c(Cl)cc1Cl	c-Src (Homo sapiens, UniProt P12931)	18
COC(=O)C1CCN(Cc2ccc(-c3ccc4c(Nc5cc(OC)c(Cl)cc5Cl)c(C#N)cnc4c3)nc2)CC1	c-Src (Homo sapiens, UniProt P12931)	1.7
COc1cc(Nc2c(C#N)cnc3cc(-c4ccc(-c5nnn[nH]5)cc4)ccc23)c(Cl)cc1Cl	c-Src (Homo sapiens, UniProt P12931)	10
COc1cc(Nc2c(C#N)cnc3cc(-c4ccc(Oc5ccc(CN6CCOCC6)cc5)nc4)ccc23)c(Cl)cc1Cl	c-Src (Homo sapiens, UniProt P12931)	34

A: CCN1CCN(c2ccc(-c3ccc4c(Nc5cc(OC)c(Cl)cc5Cl)c(C#N)cnc4c3)nc2)CC1
B: COc1ccc(-c2ccc3c(Nc4cc(OC)c(Cl)cc4Cl)c(C#N)cnc3c2)cc1
C: COc1cc(Nc2c(C#N)cnc3cc(-c4cc(CN5CCOCC5)c(CN5CCOCC5)s4)c(OC)cc23)c(Cl)cc1Cl
# rank by IC50, ascending (min first) The reply should contain the labels ordered as requested.
A, C, B
(A: 0.23 nM, C: 0.48 nM, B: 12 nM)

I: CCOC(=O)C1CCCN(Cc2ccc(-c3ccc4c(Nc5cc(OC)c(Cl)cc5Cl)c(C#N)cnc4c3)cc2)C1 (stereo not drawn)
II: COc1cc(Nc2c(C#N)cnc3cc(-c4cccc(CN5CCOCC5)c4)c(OC)cc23)c(Cl)cc1Cl
Which record shows the lower IC50: the first, I , or the second, II ? Record your answer as the label of the chosen record.
I
(I: 8.6 nM, II: 220 nM)

###

# Tested on: Rat2 fibroblasts stably transformed with a plasmid containing a CMV promotor controlled v-Src/Hu c-Src fusion gene
# assay-name: Anchorage Independent Src-transformed Fibroblast Proliferation Assay
# condition-label: Rattus norvegicus, Rat2, 120 h, read-out: anch-indep src-tx fib IC50, suspension growth, MTS on Day 5
measured-property: IC50 (nM)
Report only the number, with the unit nM understood.

compound	units-of-measure	IC50
COc1cc(Nc2c(C#N)cnc3cc(-c4ccc(CN5CCC(C(=O)O)CC5)cc4)ccc23)c(Cl)cc1Cl	nM	490
COc1cc(Nc2c(C#N)cnc3cc(-c4ccc(C=O)o4)ccc23)c(Cl)cc1Cl	nM	1600

Lab note: next compound to report on.
IC50 measured on "CCN1CCN(CCc2ccc(-c3ccc4c(Nc5cc(OC)c(Cl)cc5Cl)c(C#N)cnc4c3)cc2)CC1" = 2000

###

# Test system: Human adenocarcinoma cell line LoVo
# assay-name: Cell Based Screen for Inhibitors of Raf Kinase, LoVo cells
# condition-label: Homo sapiens, 96 h, four days, SRB
pIC50: −log10 of the molar value.
measured-property: pIC50

given-smiles	assayed-system	pIC50
N#Cc1cnc2cc(-c3ccc(CN4CCOCC4)cn3)ccc2c1Nc1ccc(Oc2ccccc2)cc1	Human adenocarcinoma cell line LoVo	6.54
Cn1ccnc1Sc1ccc(Nc2c(C#N)cnc3cc(-c4cc(CN5CCOCC5)c(CN5CCOCC5)s4)ccc23)cc1Cl	Human adenocarcinoma cell line LoVo	7.40

1: COCCN(C)c1ccc(-c2ccc3c(Nc4ccc(Sc5nccn5C)c(Cl)c4)c(C#N)cnc3c2)cn1
2: CC(C)N1CCN(Cc2ccc(-c3ccc4c(Nc5ccc(Sc6nccn6C)c(Cl)c5)c(C#N)cnc4c3)cc2)CC1
Out of 1 and 2 , name the one with the higher pIC50. Pick one and reply with its label.
1

a: Cn1ccnc1Sc1ccc(Nc2c(C#N)cnc3cc(-c4ccc(CN5CCC(O)CC5)s4)ccc23)cc1Cl
b: Cn1ccnc1Sc1ccc(Nc2c(C#N)cnc3cc(-c4ccc(C(=O)N5CCOCC5)cc4)ccc23)cc1Cl
// task: argmin of pIC50 over [ a , b ] Refer to your chosen entry by its label in the reply.
b
(b: 7.38, a: 8.38)

###

c-Src (Homo sapiens) data, read-out pIC50
pIC50: −log10 of the molar value.
measured-property: pIC50

Consider the worked cases shown below.
compound	pIC50
COc1cc(Nc2c(C#N)cnc3cc(-c4csc(C5OCCO5)c4)ccc23)c(Cl)cc1Cl	8.57
COc1cc(Nc2c(C#N)cnc3cc(-c4ccc(CN5CCOCC5)cc4)c(OC)cc23)c(Cl)cc1Cl	7.72
COc1cc(Nc2c(C#N)cnc3cc(-c4cccc(CCN5CCOCC5)c4)ccc23)c(Cl)cc1Cl	7.60
COc1cc(Nc2c(C#N)cnc3cc(-c4ccc(CO)n4C)ccc23)c(Cl)cc1Cl	7.12
COc1cc(Nc2c(C#N)cnc3cc(-c4ccc(CNCCS(=O)(=O)c5ccccc5)n4C)ccc23)c(Cl)cc1Cl	7.11
COc1cc(Nc2c(C#N)cnc3cc(-c4cnc(N5CCOCC5)nc4)ccc23)c(Cl)cc1Cl	7.52

P: COc1cc(Nc2c(C#N)cnc3cc(-c4ccc(CN(CCO)CCO)o4)ccc23)c(Cl)cc1Cl
Q: COc1cc(Nc2c(C#N)cnc3cc(-c4ccc(CN5CCOCC5)o4)ccc23)c(Cl)cc1Cl
Parameter metric = pIC50. Return the lower-valued option from P and Q . Choose, then provide that item's label.
P

a: COc1cc(Nc2c(C#N)cnc3cc(-c4csc(C=O)c4)ccc23)c(Cl)cc1Cl
b: COc1cc(Nc2c(C#N)cnc3cc(C#CCO)ccc23)c(Cl)cc1Cl
I would appreciate it if you could say which entry, a or b , has the lower pIC50 value. Mark your selection by writing its label.
b
(b: 7.59, a: 8.77)

I: COc1cc(Nc2c(C#N)cnc3cc(-c4ccc(CN5CCCCC5)s4)ccc23)c(Cl)cc1Cl
II: COc1ccc(/C=C/c2ccc3c(Nc4cc(OC)c(Cl)cc4Cl)c(C#N)cnc3c2)cc1
Between I and II , whose measured pIC50 reads higher? In your reply, give the label of the chosen option.
I
(I: 8.89, II: 7.21)

1: COc1cc(Nc2c(C#N)cnc3cc(-c4csc(CN5CCOCC5)c4)ccc23)c(Cl)cc1C
2: N#Cc1cnc2cc(C=CCCCN3CCOCC3)ccc2c1Nc1ccc(Cl)cc1Cl (mixture of isomers)
// pick larger pIC50 from pair: 1 vs 2 Label of pick, please.
1
(1: 8.82, 2: 7.11)
